Each entry below carries its recorded GI50.
System: IGROV1 ovarian
Assay: NCI tumour cell line growth inhibition, 48 h
QUANTITY MEASURED: GI50

# SMILES, ASSAY RESULT
rows = [
    ("CCC(=O)Oc1cc(/C=C/C(=O)O[C@H]2C[C@H]3CN4CCc5c([nH]c6cc(OC)ccc56)[C@@H]4C[C@@H]3[C@@H](C(=O)OC)[C@@H]2OC)ccc1OC", "14.1 µM"),
    ("c1cc2ccc3cc2cc1CNCCN1CCNCc2ccc4ccc(cc4c2)CNCCN(CCNC3)CCNCc2ccc3ccc(cc3c2)CNCC1", "2.89 µM"),
    ("O=C(O)[C@@H]1CCCN1Cc1cc2cc3c(cc2c2cc(OCc4ccccc4)ccc12)OCO3", "24.1 µM"),
]

---

Test system: SNB-19 CNS
Assay: NCI tumour cell line growth inhibition, 48 h
molecules and their reported TGI
QUANTITY MEASURED: TGI

# MOLECULE, ASSAY RESULT
measured = [
    ("Cc1noc(NS(=O)(=O)c2ccc(NC(=O)c3ccc4[nH]c5ccccc5c(=O)c4c3)cc2)c1C", "> 100 µM"),
    ("c1ccc2c(c1)Sc1ccccc1N2CC1CN2CCC1CC2 (stereo unspecified)", "22.6 µM"),
    ("CCN1C(Cl)=NS(=O)(=O)c2ccccc21", "> 100 µM"),
    ("CC(C)(C)c1ccc(-n2c3nc(=O)n(-c4ccccc4C(F)(F)F)c(=O)c-3cc3ccccc32)cc1", "> 100 µM"),
    ("CC#C[C@@]1(O)CCCCC1O (stereo partly specified)", "> 100 µM"),
    ("O=C1/C(=C/c2ccc(Cl)cc2)CCC/C1=C\\c1ccc(O)c(CN2CCCCC2)c1", "> 100 µM"),
    ("O=[N+]([O-])c1ccc(-c2nc(/C=N/N3CCCCC3)cs2)o1", "> 100 µM"),
    ("CSC1C=C(C(C)C)CCC1(C)SC (stereo unspecified)", "36.9 µM"),
    ("COc1cccc(-c2cc(=O)c3cc(NC(C)=O)ccc3[nH]2)c1", "> 100 µM"),
    ("O=[N+]([O-])[O][Sn]([O][Sn]([O][N+](=O)[O-])([c]1ccccc1)[c]1ccccc1)([c]1ccccc1)[c]1ccccc1", "> 100 µM"),
    ("CCOC(=O)c1cnc2oc(-c3ccc(OC)cc3)nn2c1=O", "> 100 µM"),
]

---

Test system: HCC-2998 colon
Assay: NCI tumour cell line growth inhibition, 48 h
Overview of recorded TGI for various compounds
QUANTITY MEASURED: TGI

# COMPOUND, ASSAY RESULT
rows = [
    ("O=C(/C=C/c1ccc2c(c1)OCO2)NCc1ccco1", "> 100 µM"),
    ("Cn1ncc(NCCn2cnc3c2c(=O)n(C)c(=O)n3C)c(Cl)c1=O", "> 100 µM"),
    ("C=CCCCC(=O)CCC(=O)OCC1O[C@@H](O[C@@H]2C(O)[C@@H](OC(C)=O)C(C)O[C@H]2O[C@H](CC=C)CCCCC)C(O)[C@@H](OC(=O)/C(C)=C/C)[C@@H]1OC(=O)/C=C/c1ccccc1 (stereo partly drawn)", "> 50 µM"),
]

---

System: OVCAR-8 ovarian
Experiment: NCI tumour cell line growth inhibition, 48 h
QUANTITY MEASURED: log10 TGI (log10 of the value in µM)

# MOLECULE, log10 TGI
data = [
    ("CCN(CC)CCCNc1ccc2ncn3c4ccc(O)cc4c(=O)c1c23", 1.13),
    ("COC(O)C(=O)c1c2c(cc3c1CCC3)CCCC2 (configuration not stated)", 1.40),
    ("COc1ccc2[nH]c(C(=O)N3CCN(C(=O)OCc4ccc5c(Br)cc(Br)c(O)c5n4)CC3)cc2c1", -0.07),
    ("O=C(Nc1ccc(-n2ccc3c(NC(=O)c4ccccc4)nccc32)cc1)c1cccc(C(F)(F)F)c1", 1.01),
    ("CN(C)c1ccc(/C=C2\\N=C(N/N=C/c3ccc(N(C)C)cc3)NC2=O)cc1", 1.86),
    ("COc1cc2c(cc1OCCCCOc1cc3nc(C)nc(Cl)c3cc1OC)N=C[C@@H]1CCCN1C2=O", 0.74),
    ("COc1ccc(C(=O)/C=C/c2ccc(OCc3ccc(Cl)cc3)cc2)cc1OC", 2.80),
]
